System: SF-268 CNS
Test: NCI-60 one-dose screen, 48 h (100 = growth as untreated, 0 = no growth, -100 = all killed)
Conditions: 10 µM unless noted
Protocol: Cells are grown in 96 well plates and exposed to the test compound for 48 hours. Compounds are tested at a single concentration, which is 10^-5 M for most compounds. The reported endpoint is percent growth (GI% or GIPRCNT), where numbers from 0 - 100% represent growth inhibition, and numbers from -100% - 0 represent cell death. For example, a value of 40 represents 60% growth inhibition. A value of 0 means no net growth occurred over the course of the experiment. […]
The panel holds about 83,000 compounds, 20% with a hit somewhere; the sample as a whole holds those more often.
# growth per entry
Only the number, expressed in %, is required.

Previously resolved entries follow.
COMPOUND	UNIT OF MEASURE	growth
O=C1/C(=C\c2ccc(Br)o2)SC(=S)N1CCc1ccc(O)cc1	%	96
NS(=O)(=O)c1ccc(CCNC(=O)/C=C/c2ccc(Cl)cc2)cc1	%	95.6
C=C(C)[C@@H]1CC[C@]2(c3nnc(-c4ccncc4)o3)CC[C@]3(C)[C@H](CC[C@@H]4[C@@]5(C)CCC(=O)NC(C)(C)[C@@H]5CC[C@]43C)[C@@H]12	%	89.5

The reported SF-268 CNS growth of N#CC1=C(N)Oc2ccc3ccccc3c2C1c1ccccc1Cl (centres undefined) is 57.7

Record for `COc1cc(/C=N/NC(=S)NNC(=S)NC2CCCCC2)cc(OC)c1OC` under target or system SF-268 CNS: growth reported as 102

Given the compound `CC(C)(C)c1ccc(OP(=S)(N/N=C/c2ccccc2O)Oc2ccc(C(C)(C)C)cc2)cc1` and test system SF-268 CNS, the measured growth is 69.8

Tested system SF-268 CNS; growth recorded for `CC1(C)CC[C@]2(CO)CC[C@]3(C)C(=CC[C@@H]4[C@@]5(C)CC[C@H](NCO)C(C)(C)[C@@H]5CC[C@]43C)[C@@H]2C1` was 63.1

Bench note, SF-268 CNS: `Cn1cc(-c2csc(-c3c[nH]c4ccccc34)n2)c2cccnc21` , growth reads 45.4

Record for `COc1cc2nc(Cl)nc(Nc3cccc(C(=O)/C=C/c4ccc(Br)cc4)c3)c2cc1OC` under target or system SF-268 CNS: growth reported as 94.5

----------
Tested on: K-562 leukemia
Experiment: NCI-60 one-dose screen, 48 h (100 = growth as untreated, 0 = no growth, -100 = all killed)
Settings: 10 µM unless noted
Compounds without any hit were thinned out: in the full panel of roughly 83,000, 20% have a hit.
PROPERTY MEASURED: growth (%)
Kindly answer with a numeric value in %, unit omitted.

MOLECULE	SYSTEM UNDER TEST	growth (%)
O=S(=O)(NCCNc1cc(-c2cn(-c3ccccc3)nc2-c2cccc(O)c2)ccn1)c1ccc(F)cc1	K-562 leukemia	1.3
COc1ccc(/C(=C\c2ccc3c(c2)OCO3)C(=O)Nc2nc3ccccc3s2)cc1OC	K-562 leukemia	83.9
Nc1c(C(=O)Nc2c(Cl)cccc2Cl)sc2nc3c(cc12)C(=O)CCC3	K-562 leukemia	16.6
Cc1ccc(N(CC(=O)Nc2ccc(S(=O)(=O)N3CCC(N4CCCC4)CC3)cc2)S(=O)(=O)c2ccc(Cl)cc2)cc1	K-562 leukemia	-44.9
NCCNc1nc(-c2ccccc2)nc2nc(-c3ccccc3)oc12	K-562 leukemia	24.2
CC(=O)c1c(C)[nH]c(-c2nc3ccc(N4CCN(C)CC4)cc3[nH]2)c1-c1ccc(OCC2CCOCC2)cc1	K-562 leukemia	22.4
COC(=O)[C@]12CC[C@@H](C(C)=O)[C@@H]1[C@H]1CC[C@@H]3[C@@]4(C)C/C(=C/c5cccnc5)C(=O)C(C)(C)[C@@H]4CC[C@@]3(C)[C@]1(C)CC2	K-562 leukemia	18.3
CCOC(=O)N1CCN(CCCCOc2ccc(C(C)(C)CC)cc2)CC1	K-562 leukemia	68.1
CC(C)(C)c1cc(-n2c(-c3ccc(Cl)cc3)nc3cc(C(=O)Nc4ccc(Cl)cc4)ccc32)n[nH]1	K-562 leukemia	41.2
COc1ccc2c3c(c4ccccc4cc13)C(=O)N(CCN(C)CCN)C2=O	K-562 leukemia	-68

What the record says about `COc1ccc(-c2nc(Nc3ccc(-c4nc5ccccc5[nH]4)cc3)nc(N3CCOCC3)n2)cc1` : growth is -22

Lab note: measured growth of `CC(C)=CCC[C@](C)(O)[C@H]1CC[C@]2(C)[C@@H]1CC[C@@H]1[C@@]3(C)C/C(=C/c4cccc([N+](=O)[O-])c4)C(=O)C(C)(C)[C@@H]3CC[C@]12C` was 74

The molecule identified as `CN(CSc1ccc(Cl)cc1)c1ccc(CSc2ccc(Cl)cc2)cc1` registered its growth at 83.7

// sample `COc1cnc2c(c1)C(=O)c1c-2n(CCCNC2=NCCS2)c(=O)c2cc([N+](=O)[O-])ccc12` , its growth was -14.9

Value of growth reported for the molecule `COc1cc2nc(Cl)nc(Nc3cccc(C(=O)/C=C/c4ccc(Br)cc4)c3)c2cc1OC` is 35.9

Record `COc1ccc(-n2c(/C=C/c3ccc(O)c(OC)c3)cc(/C=C/c3ccc(O)c(OC)c3)nc2=O)cc1` , field growth: 11.8

# growth of `Clc1ccc2c(NCCNc3nc(-c4ccccc4)cc(-c4ccccc4)n3)ccnc2c1` = -46.6

Note to self: growth recorded for `COc1cc2c(cc1-c1c(C)noc1C)ncc1nc(C3CC3)n([C@H](C)COC(F)F)c12` was 30.4

get_value(item= `CC1=CC(=O)N(c2cccc3c(N4C(=O)C=C(C)C4=O)cccc23)C1=O` , readout=growth) returns 6.92

Lab note: `C=C(C)[C@@H]1CC[C@]2(C=NCCCNCCCCNCCCN)CC[C@]3(C)[C@H](CC[C@@H]4[C@@]5(C)CCCNC(C)(C)[C@@H]5CC[C@]43C)[C@@H]12` gave growth of 20.1

Entry `CC1(C)C(=O)/C(=C\c2cccnc2)C[C@]2(C)[C@H]3CC[C@@H]4[C@@H](C(=O)/C=C/c5ccncc5)CC[C@@]4(C)[C@]3(C)CC[C@@H]12` — recorded growth = 3.14

Reported growth for `C=C(C)[C@@H]1CC[C@]2(C)CC[C@]3(C)[C@H](CC[C@@H]4[C@@]5(C)CCCNC(C)(C)[C@@H]5CC[C@]43C)[C@@H]12` was 4.15

// sample `O=S(=O)(NCCNc1cc(-c2cn(-c3ccccc3)nc2-c2cccc(O)c2)ccn1)c1ccc(Br)cc1` , its growth was 3.66

Lab book: growth of CCSc1ncnc2c1ncn2C1OC(CO)C(O)C1O (stereo not given) noted as 15.9

The value of growth measured for the molecule `C=C(C)[C@@H]1CC[C@]2(C(=O)O)CC[C@]3(C)[C@H](CC[C@@H]4[C@@]5(C)C/C(=C/c6cccc(I)c6)C(=O)C(C)(C)[C@@H]5CC[C@]43C)[C@@H]12` turned out to be 12.5

The molecule listed as N#CC1=C(N)Oc2c(c(N)nn2-c2ccccc2)C1c1ccc(Cl)cc1 (stereo not given) has a reported growth of 106

Measured growth, `CC(C)(C)c1ccc(OCCCCCCCN2CCNCC2)cc1` : 0.406

Entry `NCCn1cc(-c2nc(-c3c[nH]c4ncccc34)cs2)c2ccccc21` ; growth = 82.9

Please fill in: growth reported for `O=C1NC(=Nc2ccc(S(=O)(=O)Nc3nccs3)cc2)S/C1=C\c1coc2ccccc2c1=O` = 93.8

Entry `O=C1c2cccc3cccc(c23)C(=O)N1CC#Cc1ccc2c3c(cccc13)C(=O)N(CCO)C2=O` ; growth = 95.1

----------
System: OVCAR-4 ovarian
Assay: NCI-60 one-dose screen, 48 h (100 = growth as untreated, 0 = no growth, -100 = all killed)
Conditions: 10 µM unless noted
Compounds without any hit were thinned out: in the full panel of roughly 83,000, 20% have a hit.
Would you please tag the item true (1) when its growth is 20% or above, and false (0) when it is below?

SMILES	QUALITATIVE LABEL
COc1ccc(O)c(-c2cc(-c3ccc(Cl)cc3)c(C#N)c(=O)[nH]2)c1	true (1)

Hello, I need to know if `C=C1C(=O)O[C@H]2[C@H]1CC/C(Cn1cc(-c3ccc(OC)cc3)nn1)=C\CC[C@@]1(C)O[C@@H]21` has measured growth not below 20%. Thanks! true (1)

// inclusive: growth at least 20%? input: `O=C(/C=C/c1cccc2ccccc12)Nc1ncc(Cc2ccccc2)s1` false (0)

Dear colleague, could you confirm whether `COc1cc(-c2cc3ncccc3c3nc(OCCN(C)C)c4cccnc4c23)cc(OC)c1OC` has growth at or above 20%? false (0)

Determine whether this compound has growth no lower than 20%: `C#CCn1c2c(c3ccccc31)C[C@]1(C)[C@H]3CC[C@@H]4[C@@H]5C(=CCC[C@H]5C(=C)C)CC[C@@]4(C)[C@]3(C)CC[C@H]1C2(C)C` true (1)

In plain terms: is recorded growth at least 20% for `O=C1c2cc3c(cc2-c2c1c1ccc(Cl)cc1c(=O)n2C[C@H](O)[C@@H](O)[C@H](O)CO)OCO3` ? false (0)

Does `N#Cc1cnc2cc(OC[C@@H](O)CO)c(NC(=O)CC3CSSC3)cc2c1Nc1ccc(OCc2cccc(F)c2)c(Cl)c1` have a reported growth of at least 20%? false (0)

Entry `Cc1ccc(-c2ccc(Nc3ccccc3)nn2)cc1S(N)(=O)=O` : is its growth no less than 20%? true (1)
